Give measured EC50 for each item. Keep answers brief.
# tgt: Ba/F3-TPR-MET-D1228N cells (Homo sapiens, UniProt P08581, D1228N, cells depend on it)
# Construct: fused on or other part: P12270 (Nucleoprotein TPR)
# Sequence (P08581 whole entry D1228N, the tested form may be a part): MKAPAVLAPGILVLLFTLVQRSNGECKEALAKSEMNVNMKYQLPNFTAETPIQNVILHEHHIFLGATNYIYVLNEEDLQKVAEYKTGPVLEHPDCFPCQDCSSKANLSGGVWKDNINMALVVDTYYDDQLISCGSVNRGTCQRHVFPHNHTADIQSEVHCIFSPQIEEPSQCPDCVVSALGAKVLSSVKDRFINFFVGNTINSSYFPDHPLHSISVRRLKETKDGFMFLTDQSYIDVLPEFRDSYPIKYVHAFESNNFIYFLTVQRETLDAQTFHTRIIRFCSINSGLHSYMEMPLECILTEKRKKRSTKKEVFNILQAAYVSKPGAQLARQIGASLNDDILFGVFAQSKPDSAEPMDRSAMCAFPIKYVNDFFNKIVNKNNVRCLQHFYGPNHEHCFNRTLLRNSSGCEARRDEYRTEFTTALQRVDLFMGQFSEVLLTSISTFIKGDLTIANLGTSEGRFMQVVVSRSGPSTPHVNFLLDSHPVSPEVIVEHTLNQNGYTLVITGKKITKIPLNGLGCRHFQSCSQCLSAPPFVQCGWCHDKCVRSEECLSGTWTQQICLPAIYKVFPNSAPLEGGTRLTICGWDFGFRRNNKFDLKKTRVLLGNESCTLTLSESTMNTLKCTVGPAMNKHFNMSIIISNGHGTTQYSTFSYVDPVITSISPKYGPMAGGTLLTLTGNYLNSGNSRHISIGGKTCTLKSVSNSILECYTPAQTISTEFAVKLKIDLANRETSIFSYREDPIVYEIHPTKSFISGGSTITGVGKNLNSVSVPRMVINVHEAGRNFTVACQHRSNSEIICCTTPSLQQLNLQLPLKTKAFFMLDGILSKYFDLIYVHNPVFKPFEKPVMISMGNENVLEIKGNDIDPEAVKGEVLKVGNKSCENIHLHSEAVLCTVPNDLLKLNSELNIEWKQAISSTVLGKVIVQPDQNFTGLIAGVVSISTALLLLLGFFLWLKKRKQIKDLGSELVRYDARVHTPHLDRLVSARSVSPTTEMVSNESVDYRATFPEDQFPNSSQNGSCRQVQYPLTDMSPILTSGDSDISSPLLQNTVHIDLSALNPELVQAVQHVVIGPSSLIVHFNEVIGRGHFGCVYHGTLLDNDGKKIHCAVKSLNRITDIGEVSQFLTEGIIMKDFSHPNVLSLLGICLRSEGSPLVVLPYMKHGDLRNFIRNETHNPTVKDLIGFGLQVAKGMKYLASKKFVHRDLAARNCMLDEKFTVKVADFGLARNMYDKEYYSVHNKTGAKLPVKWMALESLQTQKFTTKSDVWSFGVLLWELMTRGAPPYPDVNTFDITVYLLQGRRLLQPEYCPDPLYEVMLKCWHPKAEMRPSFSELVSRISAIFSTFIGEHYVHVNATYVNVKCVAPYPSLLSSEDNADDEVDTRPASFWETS
# assaySummary: CellTiter-Glo Cell Viability Assay, Ba/F3-TPR-MET-D1228N
# testParameters: 72 hours

The following compounds have reported results that may help.
CNCCOc1ccc2c(Oc3c(F)cc(NC(=O)c4cnccc4OC4CC4)cc3F)ccnc2c1    ≤ 100 nM
CNCCCOc1cc2nccc(Oc3ccc(NC(=O)c4cnccc4OC)c(F)c3F)c2cc1OC    ≤ 100 nM
COc1cc2c(Oc3c(F)cc(NC(=O)c4cnccc4OC4CC4)cc3F)ccnc2cc1OCCCN1CCOCC1    ≤ 100 nM
COc1cc2nccc(Oc3c(F)cc(NC(=O)c4ccncc4OC)cc3F)c2cc1O[C@@H](C)CO    ≤ 100 nM
CCNCCOc1cc2nccc(Oc3c(F)cc(NC(=O)c4cnccc4OC4CC4)cc3F)c2cc1OC    ≤ 100 nM
NC1(COc2ccc3c(Oc4c(F)cc(NC(=O)c5cnccc5OC5CC5)cc4F)ccnc3c2)CC1    ≤ 100 nM
CNCCOc1cc2nccc(Oc3c(F)cc(NC(=O)c4cnccc4OC4CCC4)cc3F)c2cc1OC    ≤ 100 nM
CNCCOc1cc2nccc(Oc3c(F)cc(NC(=O)c4cnc(C)nc4OC4CC4)cc3F)c2cc1OC    100 to 1000 nM

Would you be so kind as to report EC50 for each listed record?
1. COc1cc2nccc(Oc3c(F)cc(NC(=O)c4nnccc4OC4CC4)cc3F)c2cc1OC
2. CNCCOc1cc2nccc(Oc3c(F)cc(NC(=O)c4cccnc4OC4CC4)cc3F)c2cc1OC

Response:
1: ≤ 100 nM; 2: 100 to 1000 nM

Would you be so kind as to report EC50 for each listed record?
1. CNCCOc1cc2nccc(Oc3c(F)cc(NC(=O)c4cnccc4OC4CC(F)(F)C4)cc3F)c2cc1OC
2. O=C(Nc1cc(F)c(Oc2ccnc3cc(OC4CNC4)ccc23)c(F)c1)c1cnccc1OC1CC1
3. COc1cc2nccc(Oc3c(F)cc(NC(=O)c4cnccc4OC)cc3F)c2cc1OCCO
4. CNCCOc1ccc2c(Oc3c(F)cc(NC(=O)c4cnccc4OC)cc3F)ccnc2c1
5. CNCCOc1cc2nccc(Oc3c(F)cc(NC(=O)c4cnccc4OCCOC)cc3F)c2cc1OC

Response:
1. 100 to 1000 nM
2. 100 to 1000 nM
3. ≤ 100 nM
4. ≤ 100 nM
5. 100 to 1000 nM

Would you be so kind as to report EC50 for each listed record?
1. CCOc1ccncc1C(=O)Nc1cc(F)c(Oc2ccnc3cc(OCCCNC)c(OC)cc23)c(F)c1
2. CNCCOc1ccc2c(Oc3c(F)cc(NC(=O)c4ncccc4OC4CC4)cc3F)ccnc2c1
3. COc1cc2nccc(Oc3c(F)cc(NC(=O)c4cnccc4OC4CC4)cc3F)c2cn1
4. COc1cc2c(Oc3c(F)cc(NC(=O)c4cnccc4OC)cc3F)ccnc2cc1OC(F)(F)F
5. CNCCOc1cc2nccc(Oc3c(F)cc(NC(=O)c4cnccc4OC[C@H](C)F)cc3F)c2cc1OC

Response:
100 to 1000 nM
≤ 100 nM
100 to 1000 nM
100 to 1000 nM
≤ 100 nM
